# Test system: 953936-095-R-J2-PDC spheroids with HUVEC/MSC, viability
# test-method-notes: Anticancer human tumor 953936-095-R-J2-PDC patient-derived cervical squamous cell carcinoma cell line growth inhibition [PI3K]
# run-parameters: second compound 1 µM; first compound 3.16 µM; stronger effect = lower value
reported-property: viability, T/C (%)

CC(C)NCC(C(=O)N1CCN(c2ncnc3c2C(C)CC3O)CC1)c1ccc(Cl)cc1 (stereo not given) + COc1c(OCCCN2CCOCC2)ccc2c3n(c(=NC(=O)c4cnc(N)nc4)nc12)CCN3 : 0.83
CC(C)NCC(C(=O)N1CCN(c2ncnc3c2C(C)CC3O)CC1)c1ccc(Cl)cc1 (stereo not given) + Cc1nc(NC(=O)N2CCCC2C(N)=O)sc1-c1ccnc(C(C)(C)C(F)(F)F)c1 : 16.2
Cn1ncc(Cl)c1-c1cc(C(=O)NC(CN)Cc2cccc(F)c2)sc1Cl (stereo not given) + COc1c(OCCCN2CCOCC2)ccc2c3n(c(=NC(=O)c4cnc(N)nc4)nc12)CCN3 : 1.11
Cn1nccc1Nc1nccc(-c2ccn(C(CO)c3ccc(Cl)c(F)c3)c(=O)c2)n1 (stereo not given) + Cc1nc(NC(=O)N2CCCC2C(N)=O)sc1-c1ccnc(C(C)(C)C(F)(F)F)c1 : 40.1
CCCS(=O)(=O)Nc1ccc(F)c(C(=O)c2c[nH]c3ncc(-c4ccc(Cl)cc4)cc23)c1F + COc1c(OCCCN2CCOCC2)ccc2c3n(c(=NC(=O)c4cnc(N)nc4)nc12)CCN3 : 2.83

###

# Tested on: 953936-095-R-J2-PDC spheroids with HUVEC/MSC, viability
# test-method-notes: Anticancer human tumor 953936-095-R-J2-PDC cell line growth inhibition [PI3K];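 note: spheroids exposed to compounds for seven days before read-out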
# run-parameters: second compound 0.1 µM; first compound 0.0316 µM; stronger effect = lower value
Cut-off 60% on viability, T/C: below means TRUE, at or above means FALSE.

CC(=O)c1c(C)c2cnc(Nc3ccc(N4CCNCC4)cn3)nc2n(C2CCCC2)c1=O + COc1c(OCCCN2CCOCC2)ccc2c3n(c(=NC(=O)c4cnc(N)nc4)nc12)CCN3 : TRUE
Cn1nccc1Nc1nccc(-c2ccn(C(CO)c3ccc(Cl)c(F)c3)c(=O)c2)n1 (stereo not drawn) + CC(Nc1ccc2c(c1)OCCn1cc(N3C(=O)OCC3C(F)F)nc1-2)C(N)=O : FALSE
CC(Cn1ccc(-c2ccc(C#N)c(Cl)c2)n1)NC(=O)c1cc(C(C)O)[nH]n1 (stereo not drawn) + Cc1nc(NC(=O)N2CCCC2C(N)=O)sc1-c1ccnc(C(C)(C)C(F)(F)F)c1 : FALSE
CCN1CCN(Cc2ccc(Nc3ncc(F)c(-c4cc(F)c5nc(C)n(C(C)C)c5c4)n3)nc2)CC1 + CC(Nc1ccc2c(c1)OCCn1cc(N3C(=O)OCC3C(F)F)nc1-2)C(N)=O : TRUE
CCN1CCN(Cc2ccc(Nc3ncc(F)c(-c4cc(F)c5nc(C)n(C(C)C)c5c4)n3)nc2)CC1 + CC(Nc1ncnc2nc[nH]c12)c1cc2cccc(Cl)c2c(=O)n1-c1ccccc1 : FALSE
CC(=O)c1c(C)c2cnc(Nc3ccc(N4CCNCC4)cn3)nc2n(C2CCCC2)c1=O + CC(Nc1ccc2c(c1)OCCn1cc(N3C(=O)OCC3C(F)F)nc1-2)C(N)=O : TRUE
Cn1ncnc1[C@H]1c2n[nH]c(=O)c3cc(F)cc(c23)N[C@@H]1c1ccc(F)cc1 + COc1c(OCCCN2CCOCC2)ccc2c3n(c(=NC(=O)c4cnc(N)nc4)nc12)CCN3 : TRUE
CNC(=O)c1ccc(N2C(=S)N(c3ccc(C#N)c(C(F)(F)F)c3)C(=O)C2(C)C)cc1F + CC(Nc1ncnc2nc[nH]c12)c1cc2cccc(Cl)c2c(=O)n1-c1ccccc1 : FALSE
